Give measured pIC50 for each item. Keep answers brief.
- ASSAY_TARGET: CYP11A1 (Homo sapiens, UniProt P05108)
- Construct: human H295R adrenocortical carcinoma cell line was used as source of enzyme; endogenous in cells
- Sequence (P05108 40-521): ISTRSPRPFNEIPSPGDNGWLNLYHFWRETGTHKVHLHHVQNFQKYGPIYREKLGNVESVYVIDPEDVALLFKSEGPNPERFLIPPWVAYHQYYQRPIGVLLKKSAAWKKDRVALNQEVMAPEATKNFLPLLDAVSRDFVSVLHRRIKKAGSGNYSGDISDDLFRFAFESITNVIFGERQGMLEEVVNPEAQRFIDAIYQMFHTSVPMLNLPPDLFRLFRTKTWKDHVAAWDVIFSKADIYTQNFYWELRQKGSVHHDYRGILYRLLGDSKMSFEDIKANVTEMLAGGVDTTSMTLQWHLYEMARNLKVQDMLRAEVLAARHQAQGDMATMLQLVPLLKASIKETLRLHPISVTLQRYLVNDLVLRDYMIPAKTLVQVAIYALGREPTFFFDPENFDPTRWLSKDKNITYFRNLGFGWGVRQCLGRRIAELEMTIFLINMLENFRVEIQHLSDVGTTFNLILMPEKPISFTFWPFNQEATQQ
- EXPERIMENT: CYP11A1 inhibition, isocaproic acid release assay (IARA) in H295R cells
- COND: human H295R adrenocortical carcinoma cell line, three days, 3 nM [24,25-3H]-labelled cholesterol; read-out: IC50 on CYP11A1 inhibition (Group)
pIC50: −log10 of the molar value.

Tell me the measured pIC50 of CN(C)C(=O)[C@H]1CC[C@H](COc2ccc(CN3Cc4ccccc4C3)cc2S(C)(=O)=O)CC1 [Compound 79] , please. > 7.00

Tell me the measured pIC50 of CS(=O)(=O)N1CCC(COc2coc(CN3Cc4ccc(-c5nncs5)cc4C3)cc2=O)CC1 [Compound 6] , please. 6.70 to 7.00

Tell me the measured pIC50 of CCCCS(=O)(=O)c1cc(CN2Cc3ccccc3C2)ccc1OCC1CCN(S(C)(=O)=O)CC1 [Compound 28] , please. > 7.00

Tell me the measured pIC50 of N#Cc1ccc(N2CC3(CC(COc4coc(CN5CCc6ccccc6C5)cc4=O)C3)C2)nc1 [Compound 51] , please. 5.70 to 6.70

Tell me the measured pIC50 of CS(=O)(=O)c1cc(CN2Cc3ccccc3C2)ccc1OCc1ccc([S@](C)(=N)=O)cc1 [Compound 95] , please. 6.70 to 7.00

Tell me the measured pIC50 of CS(=O)(=O)c1cc(CN2Cc3ccc(-c4ncco4)cc3C2)ccc1OCC1CCN(S(C)(=O)=O)CC1 [Compound 13b] , please. > 7.00

Tell me the measured pIC50 of CC(O)C1CCC(COc2ccc(CN3Cc4ccccc4C3)cc2S(C)(=O)=O)CC1 (stereo not shown) [Compound 94] , please. 5.70 to 6.70

Tell me the measured pIC50 of CC[S@@](=N)(=O)c1ccc(COc2ccc(CN3Cc4ccccc4C3)cc2S(C)(=O)=O)cc1 [Compound 98] , please. > 7.00

Tell me the measured pIC50 of CC(C)(C)OC(=O)N1CCC2(CC1)CC(Oc1coc(CN3CCc4ccccc4C3)cc1=O)C2 [Compound 32] , please. 6.70 to 7.00

Tell me the measured pIC50 of CC(=O)N1CCC(COc2ccc(CN3Cc4ccccc4C3)cc2S(C)(=O)=O)CC1 [Compound 87] , please. 5.70 to 6.70

Tell me the measured pIC50 of CS(=O)(=O)c1cc(CN2Cc3ccccc3C2)ccc1OCc1ccc(C(=O)N=S(C)(C)=O)cc1 [Compound 78] , please. > 7.00

Tell me the measured pIC50 of CO/N=C(\C)c1ccc2c(c1)CN(Cc1cc(=O)c(OCC3CCN(S(C)(=O)=O)CC3)co1)C2 [Compound 91] , please. 6.70 to 7.00

Tell me the measured pIC50 of CS(=O)(=O)N1CCC(COc2coc(CN3Cc4ccc(-c5ncco5)cc4C3)cc2=O)CC1 [Compound 3] , please. > 7.00

Tell me the measured pIC50 of CS(=N)(=O)c1ccc(COc2ccc(CN3Cc4ccc(C(F)(F)F)cc4C3)cc2S(C)(=O)=O)cc1 (stereo not shown) [Compound 85] , please. > 7.00

Tell me the measured pIC50 of CS(=O)(=O)N1CCC(COc2coc(CN3Cc4ccc(-c5ncon5)cc4C3)cc2=O)CC1 [Compound 8] , please. 6.70 to 7.00

Tell me the measured pIC50 of CS(=O)(=O)c1cc(CN2Cc3ccccc3C2)ccc1OCC1CCOCC1 [Compound 83] , please. 5.70 to 6.70
